System: PHA-stimulated splenocytes
METHOD_SUMMARY: Proliferative response of PHA-stimulated splenocytes (MTT assay)
Assay type: cell-based
CONDITION_SUMMARY: PHA 5 μg/ml, 72 hr; compounds at 5 μM (method says 10 μM); ratio of O.D. versus vehicle control
Here the recorded Stimulation Index (average ± SD) is given for each entry.

Solved cases (10 shown):
{"COMPOUND": "COc1cc(/C=C/C(=O)CC(=O)/C=C/c2ccc(OC(=O)C(C)NC(=O)OC(C)(C)C)c(OC)c2)ccc1OC(=O)C(C)NC(=O)OC(C)(C)C (racemic)", "Stimulation Index (average ± SD)": "1.78 ± 0.07"}
{"COMPOUND": "COc1cc(/C=C/C(=O)CC(=O)/C=C/c2ccc(OC(=O)[C@H](CC(C)C)NC(=O)OCC3c4ccccc4-c4ccccc43)c(OC)c2)ccc1OC(=O)[C@H](CC(C)C)NC(=O)OCC1c2ccccc2-c2ccccc21", "Stimulation Index (average ± SD)": "2.16 ± 0.13"}
{"COMPOUND": "COc1cc(/C=C/C(=O)CC(=O)/C=C/c2ccc(OC(=O)[C@H](C)NC(=O)OCc3ccccc3)c(OC)c2)ccc1OC(=O)[C@H](C)NC(=O)OCc1ccccc1", "Stimulation Index (average ± SD)": "2.70 ± 0.25"}
{"COMPOUND": "COc1cc(/C=C/C(=O)CC(=O)/C=C/c2ccc(OC(=O)[C@H](Cc3ccccc3)NC(=O)OCc3ccccc3)c(OC)c2)ccc1OC(=O)[C@H](Cc1ccccc1)NC(=O)OCc1ccccc1", "Stimulation Index (average ± SD)": "2.91 ± 0.13"}
{"COMPOUND": "COc1cc(/C=C/C(=O)CC(=O)/C=C/c2ccc(OC(=O)CNC(=O)OCc3ccccc3)c(OC)c2)ccc1OC(=O)CNC(=O)OCc1ccccc1", "Stimulation Index (average ± SD)": "2.64 ± 0.10"}
{"COMPOUND": "COc1cc(/C=C/C(=O)CC(=O)/C=C/c2ccc(OC(=O)[C@@H](C)NC(=O)OC(C)(C)C)c(OC)c2)ccc1OC(=O)[C@@H](C)NC(=O)OC(C)(C)C", "Stimulation Index (average ± SD)": "2.07 ± 0.12"}
{"COMPOUND": "COc1cc(/C=C/C(=O)CC(=O)/C=C/c2ccc(OC(=O)[C@H](CCC(N)=O)NC(=O)OCc3ccccc3)c(OC)c2)ccc1OC(=O)[C@H](CCC(N)=O)NC(=O)OCc1ccccc1", "Stimulation Index (average ± SD)": "2.37 ± 0.16"}
{"COMPOUND": "COc1cc(/C=C/C(=O)CC(=O)/C=C/c2ccc(OC(=O)CCNC(=O)OC(C)(C)C)c(OC)c2)ccc1OC(=O)CCNC(=O)OC(C)(C)C", "Stimulation Index (average ± SD)": "1.70 ± 0.24"}
{"COMPOUND": "COc1cc(/C=C/C(=O)CC(=O)/C=C/c2ccc(OC(=O)C(C)N)c(OC)c2)ccc1OC(=O)C(C)N.Cl.Cl (racemic) [HCl-DL-Ala-Cur]", "Stimulation Index (average ± SD)": "1.91 ± 0.15"}
{"COMPOUND": "COc1cc(/C=C/C(=O)CC(=O)/C=C/c2ccc(OC(=O)[C@H](CCSC)NC(=O)OC(C)(C)C)c(OC)c2)ccc1OC(=O)[C@H](CCSC)NC(=O)OC(C)(C)C", "Stimulation Index (average ± SD)": "1.37 ± 0.10"}

IN: Enter reported Stimulation Index (average ± SD) observed with PHA-stimulated splenocytes for `COc1cc(/C=C/C(=O)CC(=O)/C=C/c2ccc(OC(=O)[C@@H](CCSC)NC(=O)OC(C)(C)C)c(OC)c2)ccc1OC(=O)[C@@H](CCSC)NC(=O)OC(C)(C)C`
OUT: 2.53 ± 0.08

IN: Enter reported Stimulation Index (average ± SD) observed with PHA-stimulated splenocytes for COc1cc(/C=C/C(=O)CC(=O)/C=C/c2ccc(OC(=O)C(C)NC(=O)OCc3ccccc3)c(OC)c2)ccc1OC(=O)C(C)NC(=O)OCc1ccccc1 (racemic)
OUT: 1.18 ± 0.09

IN: Enter reported Stimulation Index (average ± SD) observed with PHA-stimulated splenocytes for `COc1cc(/C=C/C(=O)CC(=O)/C=C/c2ccc(OC(=O)[C@@H](C)NC(=O)OCc3ccccc3)c(OC)c2)ccc1OC(=O)[C@@H](C)NC(=O)OCc1ccccc1`
OUT: 1.59 ± 0.14

The reported measurements were obtained from patent US10660967B2.
